# assayTarget: COX-1/COX-2 (Homo sapiens) (UniProt P35354+P23219)
# assayName: Selectivity ratio of IC50 for COX-2 in human whole blood to COX-1 in human whole blood
# Format: tissue-based
Please mark Criterion met if the recorded Ratio IC50 is equal to or greater than 9, and Criterion not met if it falls below.

Example results:
OCc1onc(-c2ccc(Cl)o2)c1-c1ccccc1 :: Criterion met
Cc1onc(-c2ccco2)c1-c1ccccc1 :: Criterion met
Cc1onc(-c2ccc(Cl)o2)c1-c1ccccc1F :: Criterion met

Asked: Is reported Ratio IC50 greater than or equal to 9 here: FC(F)(F)c1onc(-c2ccc(Cl)o2)c1-c1ccccc1
Given back: Criterion met

Asked: Is reported Ratio IC50 greater than or equal to 9 here: Cc1ccc(-c2noc(C)c2-c2ccccc2)o1
Given back: Criterion met

Asked: Is reported Ratio IC50 greater than or equal to 9 here: Cc1onc(-c2ccc(Br)o2)c1-c1ccccc1
Given back: Criterion met

Asked: Is reported Ratio IC50 greater than or equal to 9 here: Cc1onc(-c2cccc(Cl)c2)c1-c1ccccc1
Given back: Criterion not met

Asked: Is reported Ratio IC50 greater than or equal to 9 here: CC(=O)OCc1onc(-c2ccc(Cl)o2)c1-c1ccccc1
Given back: Criterion met

Asked: Is reported Ratio IC50 greater than or equal to 9 here: Cc1onc(-c2ccccc2Cl)c1-c1ccccc1
Given back: Criterion not met
